EXPERIMENT SUMMARY: in vivo
Parameters: species or system BALB/c mice
CONDITION DETAILS: female, BALB/c, mouse, sc, 25 mg/kg
VALUE KIND: Cmax (µg/mL)
State just the number; it will be interpreted in µg/mL.

response.value for C[C@@H](O)C1C(=O)N2C(C(=O)O)=C(SC3CN(C4=NCCS4)C3)SC12 (stereo in doubt) (field: Cmax) = 164

---

EXPERIMENT SUMMARY: in vivo
Design: species or system BALB/c mice
CONDITION DETAILS: female, BALB/c, mouse, sc, 25 mg/kg
VALUE KIND: half-life
Please provide the amount together with its unit, number first.

response.value for C[C@@H](O)C1C(=O)N2C(C(=O)O)=C(SC3CN(C4=NCCS4)C3)SC12 (stereo in doubt) [T405] (field: half-life) = 49.2 min

---

EXPERIMENT SUMMARY: in vivo
Design: species or system BALB/c mice
CONDITION DETAILS: female, BALB/c, mouse, 25 mg/kg, T405 concentration in blood
VALUE KIND: concentration at 0.25 h
Please provide the amount together with its unit, number first.

response.value for C[C@@H](O)[C@@H]1C(=O)N2C(C(=O)O)=C(SC3CN(C4=NCCS4)C3)S[C@@H]12 [T405] (field: concentration at 0.25 h) = 157 ng/mL

Reference source for all entries: paper PMC7721803
